Provide the recorded kon for the entries that follow.
molecular target: T1, Monomeric 8-histidine tagged human EGFRvIII extracellular domain (human, UniProt P00533 298-645); assay: SPR, captured by anti-mouse Fc, 37 C
T1 construct: Analyte in all SPR assays; not shown: 8-histidine tag
One number for each entry, in M⁻¹ s⁻¹.

Sample records with kon:
BINDER	kon (M⁻¹ s⁻¹)
46E10 (antibody, V domains shown, Hybridoma supernatant (AlivaMab mouse); captured/detected via mouse Fc) VH: QVTLKESGPVLVKPTETLTLTCTVSGFSLSNARMGVSWIRQPPGKALEWLAHIFSTDEKSIRRSLRSRLTLSKDTSKSQVVLIMTNMDPVDTATYYCARDSSNYEGYFDYWGQGTLVTVSS VL: EVVMTQSPPNLSVSPGERATLSCRASQSVTSNFAWYQQRPGQSPRLLLYGASTRATGVPGRFSGSGSGTENILTISSLQSEDFAVYFCQQYKDWPFTFGPGSKVDIK	59700
32A10 (antibody, V domains shown, Hybridoma supernatant (AlivaMab mouse); captured/detected via mouse Fc) VH: QVTLKESGPVLVKPTETLTLTCTVSGFSLSNARMGVSWIRQPPGKALEWLAHIFSTDEKSIRRSLRSRLTLSKDTSKSQVVLTMTNMDPVDTATYFCARDSSNYEGYFDYWGQGTLVTVSS VL: EVVMTQSPATLSVSPGERVTLSCRASQSVSSNFAWYQQRPGQAPRLLLYGATTRATGLPGRFSGSGSGTENILTISSLQSEDFAIYFCQQYKDWPFTFGPGSKVDIK	65400

I am curious: what kon value has been reported for 42G9 (antibody, V domains shown, Hybridoma supernatant (AlivaMab mouse); captured/detected via mouse Fc; also called mAb 42G9) VH: QVTLKESGPVLLKPTETLTLTCTVSGFSLSNPRMGVSWIRQPPGKALEWFAHIFSTDEKSLKLSLRSRLTLSKDTSKSQVVLTMTNMAPVDSATYYCARDSSNYEGYFDFWGQGTLVTVSS VL: EVVLTQSPATLSVSPGERATLSCRASQSVRSNLAWYQQKSGQAPRLLIYGSTIRATGVPARFSGSGSGTEFTLTISSLQSEDFAVYYCQQYSDWPFTFGPGTKVDIK ?
68800

FYI, the data here is from patent US20190144550A1.
